system: L1210 murine leukemia cells; test: Cytotoxicity (parallel assay) against L1210 murine leukemia cells; assay type: cell-based; settings: Mus musculus, L1210, 0.25 μg/mL
Measured attribute: inhibition at 0.25 µg/mL (%)
Just the number please, in %, no unit attached.

Indicate its recorded inhibition at 0.25 µg/mL; the compound in question is CCC1C=CCCC2(CC3CCC4(O)C(C(=O)OCCCCCCCCCCCCCCCC(=O)N(CCCN)CC(O)CCN)C5(CCCC(C)O5)NC(=N2)N34)O1 (stereo not shown) [Compound 1, crambescidin 816, reference compound]
70

Indicate its recorded inhibition at 0.25 µg/mL; the compound in question is CCC1C=CCCC2(CC3CCC4(O)C(C(=O)OCCCCCCCCCCCCCCCC(=O)O)C5(CCCC(C)O5)NC(=N2)N34)O1 (stereo not shown)
0

Indicate its recorded inhibition at 0.25 µg/mL; the compound in question is CCC1C=CCCC2(CC3CCC4(O)C(C(=O)OCCCCCCCCCCCCCCCC(=O)N(CCCN)CC(Cl)CCN)C5(CCCC(C)O5)NC(=N2)N34)O1 (stereo not shown)
95

Indicate its recorded inhibition at 0.25 µg/mL; the compound in question is CCC1C=CCCC2(CC3CCC4C(C(=O)OCCCCCCCCCCCCCCCC(=O)OC)C5(CCCC(C)O5)NC(=N2)N34)O1 (stereo not shown)
0

Indicate its recorded inhibition at 0.25 µg/mL; the compound in question is CCC1C=CCCC2(CC3CCC4C(C(=O)OCCCCCCCCCCCCCCCC(=O)N(CCCN)CC(Cl)CCN)C5(CCCC(C)O5)NC(=N2)N34)O1 (stereo not shown)
95

Indicate its recorded inhibition at 0.25 µg/mL; the compound in question is CCC1C=CCCC2(CC3CCC4(O)C(C(=O)OCCCCCCCCCCCCCCCC(=O)OC)C5(CCCC(C)O5)NC(=N2)N34)O1 (stereo not shown)
0

Indicate its recorded inhibition at 0.25 µg/mL; the compound in question is CCC1C=CCCC2(CC3CCC4C(C(=O)OCCCCCCCCCCCCCCCC(=O)N(CCCN)CCCCN)C5(CCCC(C)O5)NC(=N2)N34)O1 (stereo not shown)
60

meta.source: patent US6028077A
